Test: Oral bioavailability in Swiss albino mouse at 50 mg/kg measured upto 24 hrs by HPLC-LCMS analysis
Assay type: ADME, organism-based
Conditions: in vivo
Reported values of bioavailability for individual entries
Kindly answer with a numeric value in %, unit omitted.

[
  {
    "QUERY_SMILES": "CCCCn1c2c([n+](C3CCC4(CCCCC4)CC3)c1C)C(=O)c1ccccc1C2=O.[Br-]",
    "UNITS_TEXT": "%",
    "VALUE_MEASURED": 1
  }
]

Next item in the queue.
Q: Complete the entry with bioavailability for `CCCCCCCCn1c2c([n+](CCCC)c1C)C(=O)c1ccccc1C2=O.[Br-]`
A: 1
